- target.of.assay: T1, recombinant human TL1A (human, UniProt O95150 71-251)
- T1 chain: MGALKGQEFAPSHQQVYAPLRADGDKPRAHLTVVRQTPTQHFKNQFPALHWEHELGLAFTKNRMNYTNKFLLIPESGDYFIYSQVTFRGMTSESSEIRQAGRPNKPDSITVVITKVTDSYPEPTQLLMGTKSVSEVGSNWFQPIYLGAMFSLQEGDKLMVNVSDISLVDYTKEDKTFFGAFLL
- test.description: cell-based or functional assay
Reported values of Whole blood IFNγ assay IC50 for individual entries
Record the value in nM, omitting the unit from your answer.

Worked set:
TL1A-0280 (antibody, human IgG1, kappa, V domains shown, human IgG1 effector-function-minimized/kappa) VH: QVQLVQSGAEVKKPGASVKVSCKASGYDFSYYGISWVRQAPGQGLEWMGWISTYNTNTHYAPSLQGRVTMTTDTSTSTAYMELRSLRSDDTAVYYCARESYYGSGAFRGGMDVWGQGTTVTVSS VL: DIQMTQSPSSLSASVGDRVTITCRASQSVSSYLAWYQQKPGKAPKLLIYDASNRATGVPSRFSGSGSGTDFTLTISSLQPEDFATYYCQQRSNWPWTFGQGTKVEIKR	0.914
TL1A-0292 (antibody, human IgG1, kappa, V domains shown, human IgG1 effector-function-minimized/kappa) VH: QVQLVQSGAEVKKPGASVKVSCKASGYDFTYYGVSWVRQAPGQGLEWMGWISTYNTVTHYAPSLQGRVTMTTDTSTSTAYMELRSLRSDDTAVYYCARESYYGSGAFRGGMDVWGQGTTVTVSS VL: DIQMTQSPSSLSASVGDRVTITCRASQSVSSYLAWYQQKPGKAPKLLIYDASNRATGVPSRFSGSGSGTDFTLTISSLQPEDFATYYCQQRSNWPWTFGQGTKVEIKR	0.95
TL1A-0266 (antibody, human IgG1, kappa, V domains shown, human IgG1 effector-function-minimized/kappa) VH: QVQLVQSGAEVKKPGASVKVSCKASGYDYTYYGISWVRQAPGQGLEWMGWISTYNTNTHYAPSLQGRVTMTTDTSTSTAYMELRSLRSDDTAVYYCARESYYGSGAFRGGMDVWGQGTTVTVSS VL: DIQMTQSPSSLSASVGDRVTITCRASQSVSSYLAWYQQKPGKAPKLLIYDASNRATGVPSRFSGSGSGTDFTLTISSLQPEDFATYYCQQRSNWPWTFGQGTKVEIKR	0.745
TL1A-0303 (antibody, human IgG1, kappa, V domains shown, human IgG1 effector-function-minimized/kappa) VH: QVQLVQSGAEVKKPGASVKVSCKASGYDFTYYGIGWVRQAPGQGLEWMGWISTYNTGTHYAPSLQGRVTMTTDTSTSTAYMELRSLRSDDTAVYYCARESYYGSGAHRGGMDVWGQGTTVTVSS VL: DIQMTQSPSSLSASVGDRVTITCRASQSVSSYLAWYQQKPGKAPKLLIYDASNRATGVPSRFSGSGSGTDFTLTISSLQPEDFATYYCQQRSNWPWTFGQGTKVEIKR	1.23

Let us move to another entry and its Whole blood IFNγ assay IC50.
QUERY: Given the entry TL1A-0294 (antibody, human IgG1, kappa, V domains shown, human IgG1 effector-function-minimized/kappa) VH: QVQLVQSGAEVKKPGASVKVSCKASGYDFTYYGVSWVRQAPGQGLEWMGWISTYNTNTHYAPSLQGRVTMTTDTSTSTAYMELRSLRSDDTAVYYCARESYYGSGAFRGGMDVWGQGTTVTVSS VL: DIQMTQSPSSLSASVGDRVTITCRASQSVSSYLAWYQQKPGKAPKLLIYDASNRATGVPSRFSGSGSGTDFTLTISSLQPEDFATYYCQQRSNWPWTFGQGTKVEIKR , report its measured Whole blood IFNγ assay IC50.
RESULT: 0.942
